- Measurement target: CSF1R (Homo sapiens, UniProt P07333)
- Sequence (P07333 20-972): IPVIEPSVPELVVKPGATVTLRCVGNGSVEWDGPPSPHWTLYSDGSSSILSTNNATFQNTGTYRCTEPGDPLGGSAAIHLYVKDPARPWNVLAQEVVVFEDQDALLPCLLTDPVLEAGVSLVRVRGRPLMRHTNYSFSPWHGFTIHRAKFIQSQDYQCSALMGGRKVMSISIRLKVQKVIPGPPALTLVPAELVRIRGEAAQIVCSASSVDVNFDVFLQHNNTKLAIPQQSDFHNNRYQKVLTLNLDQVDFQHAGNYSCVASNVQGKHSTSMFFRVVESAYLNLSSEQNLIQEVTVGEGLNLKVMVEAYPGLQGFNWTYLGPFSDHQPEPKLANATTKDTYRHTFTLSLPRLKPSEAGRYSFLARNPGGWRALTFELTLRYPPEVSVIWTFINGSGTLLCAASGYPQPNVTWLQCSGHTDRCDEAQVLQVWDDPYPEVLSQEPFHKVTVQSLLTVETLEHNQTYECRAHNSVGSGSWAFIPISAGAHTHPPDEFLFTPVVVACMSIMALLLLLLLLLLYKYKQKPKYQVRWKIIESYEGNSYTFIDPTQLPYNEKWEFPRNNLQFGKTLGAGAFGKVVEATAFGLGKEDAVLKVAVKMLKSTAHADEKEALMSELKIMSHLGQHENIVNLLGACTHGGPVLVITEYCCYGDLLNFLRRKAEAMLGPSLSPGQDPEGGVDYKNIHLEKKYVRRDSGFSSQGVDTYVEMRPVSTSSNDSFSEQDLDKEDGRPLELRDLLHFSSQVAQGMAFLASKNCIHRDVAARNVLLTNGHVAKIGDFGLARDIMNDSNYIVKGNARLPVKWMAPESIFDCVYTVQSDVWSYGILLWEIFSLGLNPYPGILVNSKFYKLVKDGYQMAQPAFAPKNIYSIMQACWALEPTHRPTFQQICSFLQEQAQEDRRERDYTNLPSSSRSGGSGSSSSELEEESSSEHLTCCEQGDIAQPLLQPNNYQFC
- Test description: KINOMEscan competition binding assay for CSF1R
- Parameters: DNA tag for qPCR (not a peptide); host or cells: E. coli/T7 phage or HEK-293
- Run conditions: @ 0.1 uM; read-out: CSF1R kinase binding activity, Percent (%) inhibition
Measured parameter: inhibition at 0.1 µM (%)

[
  {
    "Molecule": "COc1cc2nccc(Oc3ccc(NC(=O)c4nn(C5COC5)cc4OCC(F)(F)F)nc3)c2cc1OC [Compound 66]",
    "inhibition at 0.1 µM, %": 96
  },
  {
    "Molecule": "COc1cc2nccc(Oc3ccc(NC(=O)c4nc(CCC(F)(F)F)oc4CCC4CCC4)nc3)c2cc1OC [Compound 176]",
    "inhibition at 0.1 µM, %": 40
  },
  {
    "Molecule": "COc1cc2nccc(Oc3ccc(NC(=O)c4nn(C5CC5)cc4OCCF)nn3)c2cc1OC [Compound 113]",
    "inhibition at 0.1 µM, %": 82
  }
]

(a) CCCn1cc(OCC(F)(F)F)c(C(=O)Nc2ccc(Oc3ccnc4cc(OC)c(OC)cc34)nn2)n1 [Compound 32]
(b) COc1cc2nccc(Oc3ccc(NC(=O)c4nn(CCN)cc4OCC(F)(F)F)c(F)c3)c2cc1OC [Compound 75]
Among a and b , whose measured inhibition at 0.1 µM is the smaller figure? Give the label of your selection. b
(b: 57%, a: 95%)

###

Consider the following compounds and their measured pIC50 readings.
- Measurement target: UniProt P30530
- Sequence (P30530 26-894): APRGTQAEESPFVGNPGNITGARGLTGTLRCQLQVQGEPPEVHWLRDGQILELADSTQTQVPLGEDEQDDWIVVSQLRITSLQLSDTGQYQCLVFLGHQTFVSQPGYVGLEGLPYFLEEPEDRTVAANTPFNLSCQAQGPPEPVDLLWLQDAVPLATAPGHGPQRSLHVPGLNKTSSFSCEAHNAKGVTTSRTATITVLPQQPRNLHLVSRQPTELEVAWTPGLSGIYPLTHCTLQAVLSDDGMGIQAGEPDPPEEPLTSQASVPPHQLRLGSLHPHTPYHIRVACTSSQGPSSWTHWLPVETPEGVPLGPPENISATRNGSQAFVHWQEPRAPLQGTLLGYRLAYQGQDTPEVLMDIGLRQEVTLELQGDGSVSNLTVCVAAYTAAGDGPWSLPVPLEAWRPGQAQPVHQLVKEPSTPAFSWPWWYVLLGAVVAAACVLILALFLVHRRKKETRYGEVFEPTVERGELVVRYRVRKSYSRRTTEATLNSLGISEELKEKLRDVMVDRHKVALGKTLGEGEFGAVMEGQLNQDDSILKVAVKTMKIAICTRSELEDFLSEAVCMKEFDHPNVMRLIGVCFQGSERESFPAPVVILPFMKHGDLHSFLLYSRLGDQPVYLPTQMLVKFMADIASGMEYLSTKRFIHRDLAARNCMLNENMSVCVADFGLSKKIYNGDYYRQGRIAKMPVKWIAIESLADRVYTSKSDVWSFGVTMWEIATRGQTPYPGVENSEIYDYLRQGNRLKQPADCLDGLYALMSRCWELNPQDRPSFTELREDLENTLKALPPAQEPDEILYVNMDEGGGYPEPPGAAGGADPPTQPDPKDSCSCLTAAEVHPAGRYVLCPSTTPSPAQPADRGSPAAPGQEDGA
- Test description: Cellular Axl inhibition ELISA (p-Axl, Gas6-induced) using H1299 cells
- Assay type: cell-based
- Set-up: especially H1299 cell endogenously expresses Axl; endogenous in cells; host or cells: H1299
- Run conditions: read-out: Cellular Axl activity by H1299 Elisa (IC50)
pIC50: −log10 of the molar value.

Notebook entry, UniProt P30530 assay: pIC50 of COc1cc2nccc(Oc3ccc(NC(=O)c4nn(C5COC5)cc4OCC(F)(F)F)nc3)c2cc1OC [Compound 66] = ? > 6.30

Notebook entry, UniProt P30530 assay: pIC50 of COc1cc2nccc(Oc3ccc(NC(=O)c4nn(CC(C)O)cc4OCC(F)(F)F)cc3F)c2cc1OC (stereo not drawn) [Compound 80] = ? > 6.30

Notebook entry, UniProt P30530 assay: pIC50 of COc1cc2nccc(Oc3ccc(NC(=O)c4nn(CC(C)O)cc4OCC(F)(F)F)cc3)c2cc1OC (stereo not drawn) [Compound 89] = ? > 6.30

Notebook entry, UniProt P30530 assay: pIC50 of CCCn1cc(N(C)CC2CCOCC2)c(C(=O)Nc2ccc(Oc3ccnc4cc(OC)c(OC)cc34)cn2)n1 [Compound 34] = ? ≤ 6.00

Notebook entry, UniProt P30530 assay: pIC50 of COc1cc2nccc(Oc3ccc(NC(=O)c4nn(C5CCCC5)cc4OCC(F)(F)F)nn3)c2cc1OC [Compound 121] = ? > 6.30

Notebook entry, UniProt P30530 assay: pIC50 of COc1cc2nccc(Oc3ccc(NC(=O)c4nn(CC(C)=O)cc4OCC(F)(F)F)nc3)c2cc1OC [Compound 19] = ? > 6.30

Notebook entry, UniProt P30530 assay: pIC50 of COc1cc2nccc(Oc3ccc(NC(=O)c4nn(C5CCN(C)C5)cc4OCC(F)(F)F)nc3)c2cc1OC (stereo not drawn) [Compound 91] = ? > 6.30

Notebook entry, UniProt P30530 assay: pIC50 of CCCn1cc(OC(C)C)c(C(=O)Nc2ccc(Oc3ccnc4cc(OC)c(OC(F)(F)F)cc34)c(F)c2)n1 [Compound 35] = ? ≤ 6.00
